- TESTED ON: T1, mouse vascular endothelial growth factor receptor-2 Fc chimera (Flk-1-Fc) (mouse, UniProt P35918 20-762)
- T1 construct: Bought from R&D Systems; also called mouse VEGFR-2; not shown: Fc part of the purchased chimera, not specified
- T1 sequence (P35918 20-762, change not shown): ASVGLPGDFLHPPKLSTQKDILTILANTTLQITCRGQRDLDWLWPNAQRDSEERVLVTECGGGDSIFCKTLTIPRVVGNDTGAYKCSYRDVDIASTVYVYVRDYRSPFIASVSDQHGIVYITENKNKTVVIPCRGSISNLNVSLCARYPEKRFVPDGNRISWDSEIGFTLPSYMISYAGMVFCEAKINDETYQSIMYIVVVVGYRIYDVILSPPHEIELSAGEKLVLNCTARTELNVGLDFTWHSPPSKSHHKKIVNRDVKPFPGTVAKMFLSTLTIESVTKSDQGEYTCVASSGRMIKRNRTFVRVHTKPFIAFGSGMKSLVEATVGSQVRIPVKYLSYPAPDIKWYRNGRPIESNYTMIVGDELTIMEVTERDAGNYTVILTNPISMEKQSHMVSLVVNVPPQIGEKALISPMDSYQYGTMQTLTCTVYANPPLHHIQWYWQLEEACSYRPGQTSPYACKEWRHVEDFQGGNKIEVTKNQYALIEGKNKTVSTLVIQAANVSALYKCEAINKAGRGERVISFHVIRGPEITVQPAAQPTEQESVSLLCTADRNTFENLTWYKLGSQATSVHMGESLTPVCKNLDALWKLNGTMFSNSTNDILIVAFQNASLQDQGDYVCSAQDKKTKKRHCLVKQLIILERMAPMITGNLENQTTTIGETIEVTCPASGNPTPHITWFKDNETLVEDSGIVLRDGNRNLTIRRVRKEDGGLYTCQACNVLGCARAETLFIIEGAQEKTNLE
- TEST METHOD NOTES: radioactive equilibrium binding assay, 1 nM Flk-1-Fc, % of input bound
RESULT TYPE: Binding to 1 nM Flk-1, % (%)
Kindly answer with a numeric value in %, unit omitted.

Below, each entry is followed by its recorded Binding to 1 nM Flk-1, % result.
1. D2 (designed binder, 10Fn3 clone, Del 1-8) EVVAATPTSLLISWRHPHFPTRYYRITYGETGGNSPVQEFTVPLQPPTATISGLKPGVDYTITGYAVTVERNGRNLMTPISINYRT: 30
2. D6 (designed binder, 10Fn3 clone, Del 1-8) EVVAATPTSLLISWRHPHFPTRYYRITYGETGGNSPVQEFTVPLQPPTATISGLKPGVDYTITGYAVTVERNGKTLMTPISINYRT: 30
3. D9 (designed binder, 10Fn3 clone, Del 1-8) EVVAATPTSLLISWRHPHFPTRYYRITYGETGGNSPVQEFTVPLQPPTATISGLKPGVDYTITGYAVTEERNGRVLFTPISINYRT: 40

What measured Binding to 1 nM Flk-1, % goes with E24 (designed binder, 10Fn3 clone, Del 1-8) EVVAATPTSLLISWRHPHFPTRYYRITYGETGGNSPVQEFTVPLQPPTATISGLKPGVDYTITGYAVTVERNDRVLFTPISINYRT ?
29

Query (binder): E10 (designed binder) EVVAATPTSLLISWRHPHFPTRYYRITYGETGGNSPVQEFTVPLQPPTATISGLKPGVDYTITGYAVTEGRNGRELFIPISINYRT ; field requested: Binding to 1 nM Flk-1, %
3

Query (binder): EGE5 (designed binder, 10Fn3 clone, Del 1-8) EVVAATPTSLLISWRHPHFPTRYYRITYGETGGNSPVQEFTVPLQPPTATISGLKPGVDYTITGYAVTLERNGRVLNTPISINYRT ; field requested: Binding to 1 nM Flk-1, %
47

What value of Binding to 1 nM Flk-1, % has been reported for the following binder? E12 (designed binder, 10Fn3 clone, Del 1-8) EVVAATPTSLLISWRHPHFPTRYYRITYGETGGNSPVQEFTVPLQPPTATISGLKPGVDYTITGYAVTFARDGHEILTPISINYRT
1

GET /values?readout=Binding to 1 nM Flk-1, %&item= F4 (designed binder, 10Fn3 clone, Del 1-8) EVVAATPTSLLISWRHPHFPTRYYRITYGETGGNSPVQEFTVPLQPPTATISGLKPGVDYTITGYAVTVERDGRTLRTPISINYRT
18

Quick check: Binding to 1 nM Flk-1, % of EGE6 (designed binder, 10Fn3 clone, Del 1-8) EVVAATPTSLLISWRHPHFPTRYYRITYGETGGNSPVQEFTVPLQPPTATISGLKPGVDYTITGYAVTLERNGRLLNTPISINYRT ?
40

Any idea what its Binding to 1 nM Flk-1, % is? The binder is C10 (designed binder, 10Fn3 clone, Del 1-8) EVVAATPTSLLISWRHPHFPTRYYRITYGETGGNSPVQEFTVPLQPPTATISGLKPGVDYTITGYAVTVERNGRVLIIPISINYRT
17

# get_value(readout='Binding to 1 nM Flk-1, %', item= G4 (designed binder, 10Fn3 clone, Del 1-8) EVVAATPTSLLISWRHPHFPTRYYRITYGETGGNSPVQEFTVPLQPPTATISGLKPGVDYTITGYAVTIEKNGRHLNIPISINYRT )
12

# lookup: Binding to 1 nM Flk-1, % of F3 (designed binder, 10Fn3 clone, Del 1-8) EVVAATPTSLLISWRHPHFPTRYYRITYGETGGNSPVQEFTVPLQPPTATISGLKPGVDYTITGYAVTVERDGRKLYTPISINYRT
15
